Target: T1, CaBdf1 BD2 (GST-tagged, wild-type) (Candida albicans (strain SC5314 / ATCC …, UniProt Q5A4W8))
T1 chain: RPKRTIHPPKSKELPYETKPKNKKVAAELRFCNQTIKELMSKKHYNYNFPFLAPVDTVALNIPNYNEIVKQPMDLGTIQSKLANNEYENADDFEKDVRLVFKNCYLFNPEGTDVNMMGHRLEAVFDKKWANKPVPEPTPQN
Experiment: histone peptide array (Active Motif MODified), 1 uM GST-tagged bromodomain, anti-GST detection, normalized mean intensity
Ends that are not written are not given here. me2a = not defined here
Property measured: binding score
Please give the numeric answer without any surrounding text.

Consider the worked cases shown below.
AR(me2a)TK(me2)QTAR(me2a)K(Me)STGGKAPRKQ (reading uncertain); 0.00629
PRKQLATKAARKSAPATGG (P R K Q L A T K A A Rme2a Kme3 S A P A T G G); 0.00703
SGRGKGGKGLGKGGAKRHR (S G Rme2a G K G G K G L G K G G A K R H R); 0.0215
PRKQLATKAARKSAPATGG (not fully specified); 0.00111
ARTKQTARKSTGGKAPRKQ (A R T Kac Q T A Rme2a Kme1 S T G G K A P R K Q); 0.00555
ARTKQTARKSTGGKAPRKQ (A R T K Q T A R Kme2 pS T G G K A P R K Q); 0.00333

## Input Please report the recorded binding score for SGRGKGGKGLGKGGAKRHR (pS G Rme2s G Kac G G K G L G K G G A K R H R) .
## Output 0.00555
